B1: ESR2 (parent)
chain: KSCQACRLRKCYEVGMVKCGSRRE

variants of: B1; test: protein stability index of a GFP-peptide fusion (GPS, HEK-293T) (PSI 1-6); higher = more stable; details: c terminus: a fixed tail appended;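 note: lentivirally expressed fusions sorted by FACS into six bins by GFP to DsRed ratio, PSI derived from sequencing read proportions per bin multiplied by bin number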
Outcome: label 1 for protein stability index of at least 2; label 0 for anything lower.

C6K :: label 1
S2C :: label 0
S2V :: label 0
K10F :: label 0

Qu. Hi, just wondering whether C3M shows protein stability index of 2 or higher.
Ans. label 1

Qu. Hi, just wondering whether V17G shows protein stability index of 2 or higher.
Ans. label 1

Qu. Hi, just wondering whether M16V shows protein stability index of 2 or higher.
Ans. label 0

Qu. Hi, just wondering whether V17C shows protein stability index of 2 or higher.
Ans. label 1

Qu. Hi, just wondering whether M16S shows protein stability index of 2 or higher.
Ans. label 1

Qu. Hi, just wondering whether Y12V shows protein stability index of 2 or higher.
Ans. label 1

Qu. Hi, just wondering whether A5E shows protein stability index of 2 or higher.
Ans. label 1

Qu. Hi, just wondering whether K1C shows protein stability index of 2 or higher.
Ans. label 1

Qu. Hi, just wondering whether M16Y shows protein stability index of 2 or higher.
Ans. label 0

Qu. Hi, just wondering whether K1E shows protein stability index of 2 or higher.
Ans. label 0

Qu. Hi, just wondering whether E13Y shows protein stability index of 2 or higher.
Ans. label 0

Qu. Hi, just wondering whether K18F shows protein stability index of 2 or higher.
Ans. label 0

Qu. Hi, just wondering whether C3N shows protein stability index of 2 or higher.
Ans. label 1

Qu. Hi, just wondering whether K1D shows protein stability index of 2 or higher.
Ans. label 0

Qu. Hi, just wondering whether C3E shows protein stability index of 2 or higher.
Ans. label 1

These measurements were taken from the supplement of paper PMC10567573.
